# Procedure summary: qHTS assay to identify small molecule agonists of the farnesoid-X-receptor (FXR) signaling pathway - cell viability counter screen (AID 743218); also: nearly all actives have a fitted effect of over 45% in size
# Protocol conditions: FXR-bla HEK293T viability, CellTiter-Glo luminescence, 16 h; series mostly up to 62.6 µM
# Source text: U.S. Tox21 Program National Center for Advancing Translational Sciences [NCATS] NIH Chemical Genomics Center [NCGC] U.S. Environmental Protection Agency [EPA] National Institutes of Environmental Health Sciences [NIEHS] National Toxicology Program [NTP] U.S. Food and Drug Administration [FDA] Tox21 Assay Overview: The farnesoid-X-receptor (FXR), a nuclear hormone receptor, is highly expressed in liver, intestine, kidney and adrenal cortex. […]
Records with an inconclusive call do not appear. Activity calls are given as the source filed them. Calls follow the shape of the dose curve; as a rule, active = well fitted cell-killing curve with a large enough effect in the repeat runs; inconclusive = weak or mixed curves, or effect the other way; inactive = no such curve, though single readings can be large or run the other way.
Valid outcomes are listed here; reply with one: Y (active), N (inactive)

Data request: For O=C(O)CC(=O)O , what call appears in the results of this test?
Data returned: N

Data request: For O=C(c1ccccc1)c1cc(Cl)ccc1O , what call appears in the results of this test?
Data returned: N

Data request: For O=C1OC(=O)c2cccc3cccc1c23 , what call appears in the results of this test?
Data returned: N

Data request: For Clc1ccc(C(Cn2ccnc2)OCc2ccsc2Cl)c(Cl)c1 (configuration not stated) , what call appears in the results of this test?
Data returned: Y

Data request: For CCCCCCCC/C=C\CCCCCCCC(=O)N(C)CC(=O)O , what call appears in the results of this test?
Data returned: Y

Data request: For Oc1ccc(-c2ccccc2)c(Cl)c1 , what call appears in the results of this test?
Data returned: N

Data request: For Clc1ccc(C(Cn2ccnc2)OCc2c(Cl)cccc2Cl)c(Cl)c1 (configuration not stated) , what call appears in the results of this test?
Data returned: Y

Data request: For C=CC(=C)CCC=C(C)C , what call appears in the results of this test?
Data returned: N

Data request: For CN1[C@@H]2CC[C@@H]1CC(OC(=O)C(CO)c1ccccc1)C2 (some centres not stated) , what call appears in the results of this test?
Data returned: N

Data request: For O=C1OC(OC(=O)c2cccnc2Nc2cccc(C(F)(F)F)c2)c2ccccc21 (configuration not stated) , what call appears in the results of this test?
Data returned: N

Data request: For COc1cc(C=C2CCC/C(=C\c3ccc(O)c(OC)c3)C2=O)ccc1O , what call appears in the results of this test?
Data returned: Y

Data request: For CC=O , what call appears in the results of this test?
Data returned: Y

Data request: For COc1cc(C(C)C)c2c(c1)S(=O)(=O)N(COc1cc(=O)n3cccc(OCCN4CCCCC4)c3n1)C2=O , what call appears in the results of this test?
Data returned: N

Data request: For Clc1ccc(C(c2ccccc2Cl)C(Cl)Cl)cc1 (configuration not stated) , what call appears in the results of this test?
Data returned: N

Data request: For CCCSS/C(CCO)=C(\C)N(C=O)Cc1cnc(C)nc1N , what call appears in the results of this test?
Data returned: N

Data request: For Cn1cnc2ncnc(N)c21 , what call appears in the results of this test?
Data returned: N

Data request: For COc1cccc(CCc2ccccc2OCC(CN(C)C)OC(=O)CCC(=O)O)c1 (configuration not stated) , what call appears in the results of this test?
Data returned: N

###

# Measurement target: Androgen receptor (Homo sapiens)
# Procedure summary: qHTS assay to identify small molecule antagonists of the androgen receptor (AR) signaling pathway (AID 743035); also: potency is read from the fitted curve at half-maximal effect
# Protocol conditions: HEK293 AR-UAS-bla, R1881-stimulated, beta-lactamase FRET, 16 h; series mostly up to 58.5 µM
Results filed as inconclusive are left out. The source made the active and inactive calls. The call rests on the fitted dose curve; in most records, active means well fitted inhibition curve with a large enough effect in the signal ratio in the repeat runs (not every such curve was filed as active); inconclusive means weak or mixed curves, or effect the other way; inactive means no such curve, though single readings can be large or run the other way; the % refers to the signal ratio.

Record smiles	Potency
CCN1CCN(c2cc(-c3ccc(F)cc3)c3c(n2)CCCCCC3)CC1	inactive
CC1(C)C(=O)N(Br)C(=O)N1Br	inactive
CCCCCCOc1ccc(O)cc1	24.5 µM (active)

###

# Procedure summary: qHTS assay to identify small molecule antagonists of the retinoid acid receptor (RAR) signaling pathway - cell viability counter screen (AID 1159551); also: nearly all actives have a fitted effect of over 35% in size
# Protocol conditions: C3RL4 cells viability, ATP luminescence (CellTiter-Glo), 6 h; series mostly up to 92.4 µM
Results filed as inconclusive are left out. The source made the active and inactive calls. The call rests on the fitted dose curve; in most records, active means well fitted cell-killing curve with a large enough effect in the repeat runs; inconclusive means weak or mixed curves, or effect the other way; inactive means flat fitted curve, though single readings scatter.
Valid outcomes are listed here; reply with one: 1.0 for active, 0.0 for inactive

Data request: For CCOC(=O)[C@@](C)(N)Cc1ccc(O)c(O)c1 , what call appears in the results of this test?
Data returned: 0.0

Data request: For CC(C)(c1cc(Br)c(O)c(Br)c1)c1cc(Br)c(O)c(Br)c1 , what call appears in the results of this test?
Data returned: 0.0

Data request: For COc1ccc2sc(C(=O)Nc3nnn[nH]3)c(OC(C)C)c2c1 , what call appears in the results of this test?
Data returned: 0.0

Data request: For CCCSS/C(CCO)=C(\C)N(C=O)Cc1cnc(C)nc1N , what call appears in the results of this test?
Data returned: 0.0

Data request: For CC(=O)Oc1ccc(C2(c3ccc(OC(C)=O)cc3)C(=O)Nc3ccccc32)cc1 , what call appears in the results of this test?
Data returned: 0.0

Data request: For CCc1cccc(CC)c1N(COC)C(=O)CS(=O)(=O)O , what call appears in the results of this test?
Data returned: 0.0

Data request: For CCCC(CC)CCCCCCCN (centres undefined) , what call appears in the results of this test?
Data returned: 0.0

Data request: For C[C@]12CC[C@H]3C(=CCc4cc(O)ccc43)[C@@H]1CCC2=O , what call appears in the results of this test?
Data returned: 0.0

Data request: For CNC(=S)NN , what call appears in the results of this test?
Data returned: 0.0

Data request: For C[C@@]12C(=O)OC(=O)[C@]1(C)C1CCC2O1 , what call appears in the results of this test?
Data returned: 1.0

Data request: For O=C(O)CC(=O)O , what call appears in the results of this test?
Data returned: 0.0

Data request: For C=CCCCCCCC=C , what call appears in the results of this test?
Data returned: 0.0

Data request: For CC(=O)O[C@@H]1C[C@@H]2CC[C@@]1(C)C2(C)C , what call appears in the results of this test?
Data returned: 0.0

Data request: For CCC(=O)OCCc1ccccc1 , what call appears in the results of this test?
Data returned: 0.0

###

# Measurement target: Androgen receptor (Homo sapiens) (UniProt P10275)
# Sequence (P10275 whole entry, looked up): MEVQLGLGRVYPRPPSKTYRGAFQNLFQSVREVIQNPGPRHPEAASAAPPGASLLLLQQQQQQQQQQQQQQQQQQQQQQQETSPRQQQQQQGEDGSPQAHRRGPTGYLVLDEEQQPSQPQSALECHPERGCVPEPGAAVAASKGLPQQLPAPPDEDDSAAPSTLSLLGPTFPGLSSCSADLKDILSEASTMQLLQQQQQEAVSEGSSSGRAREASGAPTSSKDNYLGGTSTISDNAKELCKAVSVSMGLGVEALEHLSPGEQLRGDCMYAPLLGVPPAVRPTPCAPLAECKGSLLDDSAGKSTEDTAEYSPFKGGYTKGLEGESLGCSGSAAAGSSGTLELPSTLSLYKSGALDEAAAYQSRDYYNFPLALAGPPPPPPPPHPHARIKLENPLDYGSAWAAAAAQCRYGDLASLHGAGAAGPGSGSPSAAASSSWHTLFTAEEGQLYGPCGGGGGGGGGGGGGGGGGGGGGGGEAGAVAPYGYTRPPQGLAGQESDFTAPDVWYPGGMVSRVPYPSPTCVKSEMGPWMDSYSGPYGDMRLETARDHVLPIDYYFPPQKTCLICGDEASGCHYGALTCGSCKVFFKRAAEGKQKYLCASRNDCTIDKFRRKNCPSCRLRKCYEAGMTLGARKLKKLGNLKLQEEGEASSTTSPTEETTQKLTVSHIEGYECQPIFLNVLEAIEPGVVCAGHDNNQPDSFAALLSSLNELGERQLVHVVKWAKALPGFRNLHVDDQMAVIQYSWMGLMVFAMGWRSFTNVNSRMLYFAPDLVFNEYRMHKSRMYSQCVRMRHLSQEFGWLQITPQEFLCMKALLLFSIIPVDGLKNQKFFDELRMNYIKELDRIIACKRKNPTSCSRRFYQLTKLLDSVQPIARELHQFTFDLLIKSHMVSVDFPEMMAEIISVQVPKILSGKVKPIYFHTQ
# Procedure summary: qHTS assay to identify small molecule antagonists of the androgen receptor (AR) signaling pathway using the MDA cell line in the presence of 0.5 nM R1881 (AID 1259243); also: nearly all actives have a fitted effect of over 50% in size
# Protocol conditions: MDA-kb2 MMTV-luciferase, R1881 0.5 nM, 16 h; series mostly up to 92.4 µM
# Description: U.S. Tox21 Program National Center for Advancing Translational Sciences [NCATS] NIH Chemical Genomics Center [NCGC] U.S. Environmental Protection Agency [EPA] National Institutes of Environmental Health Sciences [NIEHS] National Toxicology Program [NTP] U.S. Food and Drug Administration [FDA] Tox21 Assay Overview: Androgen receptor (AR) is an important member of the nuclear receptor family. Its signaling plays a critical role in AR-dependent prostate cancer and other androgen related diseases. […]
Records with an inconclusive call do not appear. Calls of active or inactive are those of the source. Calls come from the whole dose curve; as a rule, active = well fitted inhibition curve with a large enough effect in the repeat runs; inconclusive = weak or mixed curves; inactive = no such curve, though single readings can be large or run the other way.
Valid outcomes are listed here; reply with one: y = active, n = inactive

Data request: For CC(C)(C)c1cc(CCC(=O)NCCCCCCNC(=O)CCc2cc(C(C)(C)C)c(O)c(C(C)(C)C)c2)cc(C(C)(C)C)c1O , what call appears in the results of this test?
Data returned: n

Data request: For C=C(C)CCCC , what call appears in the results of this test?
Data returned: n

Data request: For CCCCCCCCCCCCN(CCO)CCO , what call appears in the results of this test?
Data returned: y

Data request: For CCCCOCC , what call appears in the results of this test?
Data returned: n

Data request: For CCO[Si](C)(C)OCC , what call appears in the results of this test?
Data returned: n

Data request: For CCCSS/C(CCO)=C(\C)N(C=O)Cc1cnc(C)nc1N , what call appears in the results of this test?
Data returned: n

Data request: For O=C[C@H](O)[C@H](O)[C@H](O)CO , what call appears in the results of this test?
Data returned: n

Data request: For CC1(C)COCN1 , what call appears in the results of this test?
Data returned: n

Data request: For CN1CCN(C2Cc3ccccc3Sc3ccc(Cl)cc32)CC1 (stereo unspecified) , what call appears in the results of this test?
Data returned: y

Data request: For N#CSCSc1nc2ccccc2s1 , what call appears in the results of this test?
Data returned: n

Data request: For C=CC(=O)OCCN(CC)CC , what call appears in the results of this test?
Data returned: n

Data request: For Cc1ccc(O)cn1 , what call appears in the results of this test?
Data returned: n

Data request: For CC(C)CCOCCC(C)C , what call appears in the results of this test?
Data returned: n

Data request: For COCC(=O)O[C@]1(CCN(C)CCCc2nc3ccccc3[nH]2)CCc2cc(F)ccc2[C@@H]1C(C)C , what call appears in the results of this test?
Data returned: y

Data request: For CCCC(C)CCC(C)=O (stereo unspecified) , what call appears in the results of this test?
Data returned: n

Data request: For O=c1cccc[nH]1 , what call appears in the results of this test?
Data returned: n

Data request: For COc1nccnc1CC(C)C , what call appears in the results of this test?
Data returned: n

Data request: For CC1=CP(=O)(c2ccccc2)CC1 (stereo unspecified) , what call appears in the results of this test?
Data returned: n

Data request: For C[Si](C)O[Si](C)C , what call appears in the results of this test?
Data returned: n

Data request: For CCOC(=O)C1=C(C)NC(C)=C(C(=O)OCC)C1c1ccccc1/C=C/C(=O)OC(C)(C)C , what call appears in the results of this test?
Data returned: y

Data request: For c1ccc2c(c1)CCC2 , what call appears in the results of this test?
Data returned: n

Data request: For CCOC(OCC)C(=O)c1ccccc1 , what call appears in the results of this test?
Data returned: n

Data request: For Cc1cn[nH]c1 , what call appears in the results of this test?
Data returned: n

Data request: For CN(C)CCOC(c1ccccc1)c1ccccc1 (tested in a mixture with another compound) , what call appears in the results of this test?
Data returned: n

Data request: For CCCCCCCC(OC)OC , what call appears in the results of this test?
Data returned: n

Data request: For C=C1C(C)(C)[C@@]2(Cl)C(Cl)[C@]1(Cl)C(Cl)(Cl)C2(Cl)Cl (stereo partly specified) , what call appears in the results of this test?
Data returned: y

Data request: For OCCCc1cccnc1 , what call appears in the results of this test?
Data returned: n

Data request: For NC(=O)c1nc(-c2cccc(-c3cc(F)ccc3OCC(F)(F)C(F)(F)F)c2)n[nH]1 , what call appears in the results of this test?
Data returned: y

Data request: For OCCCCl , what call appears in the results of this test?
Data returned: n

Data request: For CCN=C1C=CC(=C(c2ccc(N(CC)CC)cc2)c2ccc(N(CC)CC)cc2)c2ccccc21 , what call appears in the results of this test?
Data returned: y

Data request: For COc1cc(C=C2CCC/C(=C\c3ccc(O)c(OC)c3)C2=O)ccc1O , what call appears in the results of this test?
Data returned: y

Data request: For C[n+]1c2cc(N)ccc2cc2ccc(N)cc21 (tested in a mixture with another compound) , what call appears in the results of this test?
Data returned: y

Data request: For CC1(C)C(=O)N(Br)C(=O)N1Br , what call appears in the results of this test?
Data returned: n

Data request: For CCCCCCCCC(C)=O , what call appears in the results of this test?
Data returned: n

Data request: For O=C(Oc1ccccc1)c1cccc(C(=O)Oc2ccccc2)c1 , what call appears in the results of this test?
Data returned: n

Data request: For C/C=C/CO , what call appears in the results of this test?
Data returned: n

Data request: For CCCOc1sc(C(=O)N2CCC(c3cc(CN)ccc3F)CC2)c(C)c1Br , what call appears in the results of this test?
Data returned: y

Data request: For O=C(O)c1cccc(Cl)n1 , what call appears in the results of this test?
Data returned: n

Data request: For O=C(O)Cc1ccc(OCCNC[C@H](O)c2ccccc2)cc1 , what call appears in the results of this test?
Data returned: n

Data request: For Clc1ccc(C(Cn2ccnc2)OCc2c(Cl)cccc2Cl)c(Cl)c1 (stereo unspecified) , what call appears in the results of this test?
Data returned: y

Data request: For Oc1cc2ccccc2cc1O , what call appears in the results of this test?
Data returned: y

Data request: For CCCCCCS , what call appears in the results of this test?
Data returned: n

Data request: For O=Cc1ccc(F)cc1 , what call appears in the results of this test?
Data returned: n

Data request: For CN(C)c1ccc(N=NS(=O)(=O)O)cc1 , what call appears in the results of this test?
Data returned: y

Data request: For COc1ccccc1C=O , what call appears in the results of this test?
Data returned: n

Data request: For CCCCN(C)C , what call appears in the results of this test?
Data returned: n

Data request: For CC1CNCC(C)O1 (stereo unspecified) , what call appears in the results of this test?
Data returned: n

Data request: For CCCCCCCC(=O)OCC , what call appears in the results of this test?
Data returned: n

Data request: For Cn1cccc1 , what call appears in the results of this test?
Data returned: n

Data request: For C[C@@H]1CC[C@H]2C(C)(C)[C@H]3C[C@@]12CC[C@@]3(C)O , what call appears in the results of this test?
Data returned: n

Data request: For CCCC(O)C(O)CO (stereo unspecified) , what call appears in the results of this test?
Data returned: n

// data source = PubChem BioAssay (Tox21)
